src = patent US10654867B2

# TARGET SYSTEM: estrogen receptor alpha (ESR1) in MCF7 breast cancer cells (Homo sapiens, UniProt P03372)
# Sequence (P03372 whole entry): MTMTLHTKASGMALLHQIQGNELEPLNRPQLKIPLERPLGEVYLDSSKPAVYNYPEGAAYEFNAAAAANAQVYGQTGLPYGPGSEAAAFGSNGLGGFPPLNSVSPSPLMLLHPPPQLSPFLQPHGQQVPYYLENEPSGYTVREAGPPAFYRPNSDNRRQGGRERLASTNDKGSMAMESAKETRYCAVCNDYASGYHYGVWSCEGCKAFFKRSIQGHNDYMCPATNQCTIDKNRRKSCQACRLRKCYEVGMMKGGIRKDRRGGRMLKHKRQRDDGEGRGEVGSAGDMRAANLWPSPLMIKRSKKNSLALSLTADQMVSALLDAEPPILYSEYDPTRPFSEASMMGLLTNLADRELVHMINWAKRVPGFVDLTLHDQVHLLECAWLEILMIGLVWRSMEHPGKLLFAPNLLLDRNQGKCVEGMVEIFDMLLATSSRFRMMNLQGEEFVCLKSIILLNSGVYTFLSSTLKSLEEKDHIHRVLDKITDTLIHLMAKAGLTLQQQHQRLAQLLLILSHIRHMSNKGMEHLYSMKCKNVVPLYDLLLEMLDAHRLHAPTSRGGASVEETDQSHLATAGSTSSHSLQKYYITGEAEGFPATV
# PROCEDURE TEXT: Breast Cancer Cell ERa High Content Fluorescence Imaging Degradation Assay (ER-alpha MCF7 HCS)
# Type: cell-based
# Set-up: endogenous in cells; host or cells: MCF7 breast cancer cells
# CONDITION SET: 4 hours, plateau of the maximal effect, DMSO and fulvestrant define 0% and 100% change in ESR1, Table 1a
ASSAY METRIC: ER-alpha MCF7HCS Sinf (%)

>  <MOLECULE>
C[C@@H]1CCN(CC(C)(C)F)[C@H](c2c(F)cc(OCCN3CC(CF)C3)cc2F)c2[nH]c3ccccc3c21

>  <ER-alpha MCF7HCS Sinf [%]>
−96.9

$$$$
>  <MOLECULE>
C[C@@H]1Cn2c(cc3ccccc32)[C@@H](c2c(F)cc(NC3CN(CCCF)C3)cc2F)N1CC(F)(F)F

>  <ER-alpha MCF7HCS Sinf [%]>
−100

$$$$
>  <MOLECULE>
CC1(C)CN(CC(F)(F)CO)[C@H](c2c(F)cc(NC3CN(CCCF)C3)cc2F)c2[nH]c3ccccc3c21

>  <ER-alpha MCF7HCS Sinf [%]>
−96

$$$$
>  <MOLECULE>
C[C@H]1Cc2c(oc3ccccc23)[C@H](c2c(F)cc(NC3CN(CCCF)C3)cc2F)N1CC(F)(F)CO (single isomer, unassigned)

>  <ER-alpha MCF7HCS Sinf [%]>
−88.8

$$$$
>  <MOLECULE>
C[C@H]1CN(CC(C)(C)F)[C@H](c2c(F)cc(OCCN3CC(CF)C3)cc2F)c2[nH]c3ccccc3c21 (single isomer, unassigned)

>  <ER-alpha MCF7HCS Sinf [%]>
−97.8

$$$$
>  <MOLECULE>
C[C@@H]1Cn2c(cc3ccccc32)[C@@H](c2c(F)cc(OC3CN(CCCF)C3)cc2F)N1CC(F)(F)F

>  <ER-alpha MCF7HCS Sinf [%]>
−103

$$$$
